- method.description: Human HepG2 cell viability assay in 384 well format
- Format: toxicity, cell-based
- Set-up: dose 125 nL, time 70.5 hour; concentration not given beside the values
- experimental.setup: HepG2 cells, read-out: Inhibition
# key: entry, value: cytotoxicity at 70.5 h

compound: CCc1noc(C(C)N2CCN(CCN3CCCC3=O)CC2)n1 (configuration not stated)
cytotoxicity at 70.5 h: -2.78%
//
compound: CN(C)C(=O)c1ccc2c(c1)N(C)C(CC(=O)NCCOCCO)CO2 (configuration not stated)
cytotoxicity at 70.5 h: 12.2%
//
compound: NC(=O)C1CCN(C(=O)c2ccc(Cn3cc(Br)cn3)cc2)CC1
cytotoxicity at 70.5 h: 16%
//
compound: CCN1CCC(NC(=O)CN2CC(n3nc(C)cc3C)C2)CC1
cytotoxicity at 70.5 h: -6.85%
//
compound: O=C(c1ccc(Oc2cccnc2)cc1)N1CCN(CCO)CC1
cytotoxicity at 70.5 h: -18.5%
//
compound: Cc1cccc(CNC(=O)CC2CCN(Cc3ccccn3)CC2)n1
cytotoxicity at 70.5 h: -1.17%
//
compound: CN(C)S(=O)(=O)NCC(O)c1cc2ccccc2s1 (configuration not stated)
cytotoxicity at 70.5 h: 3.05%
//
compound: COCCNC(=O)Cn1ccc2ccc(F)cc21
cytotoxicity at 70.5 h: -3.63%
//
compound: CN(C)C(=O)c1ccc(OC2CCCC2)cc1
cytotoxicity at 70.5 h: -7%
//
compound: CC1CCN(CC(=O)N(Cc2ccccc2)Cc2nccs2)C1=O (configuration not stated)
cytotoxicity at 70.5 h: -11.6%
//
compound: CCC(Nc1ccc(Oc2cccc(C#N)c2)cc1)C(N)=O (configuration not stated)
cytotoxicity at 70.5 h: -12.3%
//
compound: Cc1cc(C)cc(NC(=O)CC2CN(Cc3ccccc3)CCO2)c1 (configuration not stated)
cytotoxicity at 70.5 h: -4.17%

---

- method.description: Human HepG2 cell viability assay in 384 well format
- Type: toxicity, cell-based
- Design: dose 125 nL, time 70.5 hour; concentration not given beside the values
- experimental.setup: HepG2 cells, read-out: Inhibition

compound: Cn1ccc(C(=O)N2C[C@@H]3CN(CC4CC4)CCO[C@@H]3C2)n1
cytotoxicity at 70.5 h / %: 11.6
--
compound: Cc1nc[nH]c1-c1nccn1CCCN(C)C
cytotoxicity at 70.5 h / %: 6.24
--
compound: COC(=O)C1CCN(c2cncc(-n3nc(C)cc3C)n2)CC1
cytotoxicity at 70.5 h / %: 2.18
--
compound: CCc1ccc(CN2C[C@@H](C(=O)O)[C@H](c3ccccc3OC)C2)o1
cytotoxicity at 70.5 h / %: -1.56
--
compound: COc1ccc(CN2CCc3sccc3C2C)cc1CN1CCOCC1 (stereo unspecified)
cytotoxicity at 70.5 h / %: -0.0983
--
compound: CC(=O)N1CCN(C(=O)NCc2cccnc2OC(C)C)CC1
cytotoxicity at 70.5 h / %: 26.4

---

- method.description: Human HepG2 cell viability assay in 384 well format
- Assay type: toxicity, cell-based
- Parameters: dose 125 nL, time 70.5 hour; concentration not given beside the values
- experimental.setup: HepG2 cells, read-out: Inhibition

compound: CCCS(=O)(=O)NCc1cccnc1OCC
cytotoxicity at 70.5 h / %: -6.74
--
compound: CC(C)c1nc2c(n1C)CCN(Cc1nc(-c3ccoc3)no1)C2
cytotoxicity at 70.5 h / %: -4.46
--
compound: c1cncc(-c2ccnn2CN2CCOCC2)c1
cytotoxicity at 70.5 h / %: 0.876
--
compound: O=C(CC1=CCCCC1)Nc1ccc(CN2C(=O)CCC2=O)cc1
cytotoxicity at 70.5 h / %: -3.73
--
compound: CCc1noc(C(C)N2CCN(CC)CC2)n1 (configuration not stated)
cytotoxicity at 70.5 h / %: -8.24
--
compound: CN1Cc2c(C(=O)NC3CCCCC3)ncn2-c2ccccc2S1(=O)=O
cytotoxicity at 70.5 h / %: 2.35
--
compound: CS(=O)(=O)c1ccc(CN2CCCC3(C2)C(=O)Nc2ccccc23)cc1 (configuration not stated)
cytotoxicity at 70.5 h / %: 24.9
--
compound: O=C(NC1CC1)N1CCOCC2(C1)CN(c1ccccc1)C(=O)CO2 (configuration not stated)
cytotoxicity at 70.5 h / %: -9.6
--
compound: Cc1cccc(C(=O)NCc2cccnc2N(C)C)n1
cytotoxicity at 70.5 h / %: 1.42
--
compound: O=C(CCN1CCOC1=O)N(Cc1ccncc1)CC1CCCO1 (configuration not stated)
cytotoxicity at 70.5 h / %: 4.43
--
compound: CC(=O)N1CCc2nc3sc(C(N)=O)c(N)c3c(C(F)(F)F)c2C1
cytotoxicity at 70.5 h / %: 6.92
--
compound: CCOc1ccccc1N(C)C(=O)c1ccc(Cl)cn1
cytotoxicity at 70.5 h / %: 21.8

---

- method.description: Human HepG2 cell viability assay in 384 well format
- Type: toxicity, cell-based
- Parameters: dose 125 nL, time 70.5 hour; concentration not given beside the values
- experimental.setup: HepG2 cells, read-out: Inhibition

compound: CC(=O)N1C[C@@H]2CC[C@H](C1)N(S(=O)(=O)c1ccc(F)cc1Cl)C2
endpoint.unit: %
cytotoxicity at 70.5 h: -6.08
//
compound: Cc1nc2c(N3CCC(O)(Cn4ccnc4)CC3)ncnc2o1
endpoint.unit: %
cytotoxicity at 70.5 h: -0.124
//
compound: CN(C)c1ccc(C(=O)N2CCCN(Cc3cnn(C)c3)CC2)nn1
endpoint.unit: %
cytotoxicity at 70.5 h: -8.42
//
compound: CCOCC1CN(S(=O)(=O)C2CC2)Cc2nn(C)cc21 (stereo unspecified)
endpoint.unit: %
cytotoxicity at 70.5 h: -5.98
//
compound: Cc1noc(C)c1CCC(=O)N1CCOCC1CCc1cnccn1 (stereo unspecified)
endpoint.unit: %
cytotoxicity at 70.5 h: 14
//
compound: CN(C)CCC1CCN(c2cc(N3CCCC3CO)ncn2)CC1 (stereo unspecified)
endpoint.unit: %
cytotoxicity at 70.5 h: 11.7
//
compound: COc1ccc(C(C(=O)O)N(C)CCN2CCCC2)c(C)c1 (stereo unspecified)
endpoint.unit: %
cytotoxicity at 70.5 h: 24
//
compound: CC1(C2CCN(CCCC(=O)O)CC2)CN(Cc2ccccc2)C(=O)O1 (stereo unspecified)
endpoint.unit: %
cytotoxicity at 70.5 h: 2.48
//
compound: Cc1cc(N(C)CCN(C)C)n2nc(C)cc2n1
endpoint.unit: %
cytotoxicity at 70.5 h: -1.46
//
compound: COc1ccc(NC(=O)NCCCn2nc3ccccn3c2=O)cc1
endpoint.unit: %
cytotoxicity at 70.5 h: -3.39
//
compound: COc1ccc(OC)c(C(O)CN2CCN(c3cccc(C)c3)CC2)c1 (stereo unspecified)
endpoint.unit: %
cytotoxicity at 70.5 h: 7.32

---

- method.description: Human HepG2 cell viability assay in 384 well format
- Format: toxicity, cell-based
- Parameters: dose 125 nL, time 70.5 hour; concentration not given beside the values
- experimental.setup: HepG2 cells, read-out: Inhibition

molecule: Cc1nc2cc(=O)[nH]n2c(C)c1CC(=O)NCc1ccoc1
cytotoxicity at 70.5 h: -1.36%
--
molecule: Cc1nnc([C@@H]2CCO[C@@H]3CCN(C(=O)Cc4ccsc4)C[C@@H]32)o1
cytotoxicity at 70.5 h: -5.87%
--
molecule: O=C(C1CC1)N(CCc1ccccc1)C1CCOC1 (stereo not drawn)
cytotoxicity at 70.5 h: -6.28%
--
molecule: COc1ccc(C[C@H]2CN(C(=O)c3cc(C)no3)CC[C@H]2OC)cc1
cytotoxicity at 70.5 h: -5.12%
--
molecule: Cn1c(=O)[nH]c2cc(C(=O)OCC(F)F)ccc21
cytotoxicity at 70.5 h: 19.9%
--
molecule: COc1ccc(CN2CCO[C@H]3CN(C4CCC4)CC[C@H]3C2=O)cc1
cytotoxicity at 70.5 h: -0.486%
--
molecule: Cc1[nH]ccc1C(=O)N1CCCC(c2nccn2Cc2cscn2)C1 (stereo not drawn)
cytotoxicity at 70.5 h: 20.2%
--
molecule: CCN(CC)c1nc2ccsc2c(=O)n1CCC(=O)NCc1cccs1
cytotoxicity at 70.5 h: -9.85%
--
molecule: COC[C@H]1CCC[C@]12CN(C(=O)NCc1ccccc1)CCO2
cytotoxicity at 70.5 h: -16.8%
--
molecule: Cn1[nH]c(C2CC2)c(-c2ccc3c(c2)OCO3)c1=N
cytotoxicity at 70.5 h: 8.3%
--
molecule: CC(C)c1cc(C(=O)NCCCN(C)C)nc(N2CCCC2)n1
cytotoxicity at 70.5 h: -8.44%
--
molecule: CCC1CN(C(=O)c2csc3nc(-c4ccc(Cl)cc4)cn23)CCN1 (stereo not drawn)
cytotoxicity at 70.5 h: -12.3%
--
molecule: Cc1nc(O)ccc1C(=O)NCc1ncoc1C
cytotoxicity at 70.5 h: -2.74%
--
molecule: CC(C)(C)c1noc(CN2CCN(C(=O)c3cccs3)CC2)n1
cytotoxicity at 70.5 h: -12.1%
--
molecule: Cc1nc(CN2CCCc3cc(OC(F)(F)F)ccc32)oc1C
cytotoxicity at 70.5 h: 4.79%
--
molecule: COC1CCN(C(=O)C2CC(=O)N(c3ccccc3Br)C2)CC1 (stereo not drawn)
cytotoxicity at 70.5 h: -8.26%
--
molecule: Cc1cnc(CN2CCCC2c2noc(C(C)C)n2)cn1 (stereo not drawn)
cytotoxicity at 70.5 h: 1.04%
--
molecule: Fc1ccc(CNCC2Cn3nncc3CO2)cc1 (stereo not drawn)
cytotoxicity at 70.5 h: -7.4%
--
molecule: Cc1ccc(O)c(CNCC(C)c2nc3ccccc3o2)n1 (stereo not drawn)
cytotoxicity at 70.5 h: -4.08%
--
molecule: CCCc1nc(C(C)(C)NC(=O)C2CC(=O)N(CC3CC3)C2)no1 (stereo not drawn)
cytotoxicity at 70.5 h: -6.06%
--
molecule: Cc1noc(C)c1CN1CC[C@H]2OCC[C@@]2(C(=O)N(C)C)C1
cytotoxicity at 70.5 h: -10.5%
--
molecule: CCC[C@@H]1CN(S(=O)(=O)c2ccc(OC)c(OC)c2)C[C@H]1NC(C)=O
cytotoxicity at 70.5 h: 6.19%
--
molecule: CCCC1(NC(=O)C(c2ccc(F)cc2)N(C)C)CC1 (stereo not drawn)
cytotoxicity at 70.5 h: 10.6%
